Where these numbers come from: patent US20220282217A1

Molecular target: T1, HLA-A24.02 (human)
T1 construct: As for HLA-A02.01
Assay: pMHC-I complex dissociation at 37 C, 125I-b2m, half-life
From the text: Briefly, synthetic genes encoding biotinylated MHC-I heavy and light chains are expressed in E. coli and purified from inclusion bodies using standard methods. […] Stability is defined as the length of time in hours it takes for half of the complexes to dissociate, as measured by scintillation counts.
parameter_measured: Stability (T1/2 (h))
Hi! Could you send only the number? It should be in h, unit omitted.

Task: Check the records and state Stability (T1/2 (h)) for VVPLCDLLL (also called ESR1, Y537C)
Result: 0.4

Task: Using the record for YLVIQLQDKF (also called EGFR: SEPT14) , state its measured Stability (T1/2 (h)).
Result: 2.6

Task: Name the recorded Stability (T1/2 (h)) of the item KGPELFPLI (also called C11orf95: RELA) in your answer.
Result: 1.7

Task: # return recorded Stability (T1/2 (h)) for input VVPLSDLLL (also called ESR1, Y537S)
Result: 0.5

Task: Please indicate Stability (T1/2 (h)) recorded for GVYTFLPSTL (also called ESR1, S463P)
Result: 0

Task: Return value of Stability (T1/2 (h)) for input VVPLYGLLL (also called ESR1, D538G) , no commentary.
Result: 0.8
